studySystem: Recombinant human IKKβ (residues 1-737) (Homo sapiens, UniProt O14920)
Construct: Recombinant human IKKβ (residues 1-737); GST (C); made in house
Sequence (O14920 1-737): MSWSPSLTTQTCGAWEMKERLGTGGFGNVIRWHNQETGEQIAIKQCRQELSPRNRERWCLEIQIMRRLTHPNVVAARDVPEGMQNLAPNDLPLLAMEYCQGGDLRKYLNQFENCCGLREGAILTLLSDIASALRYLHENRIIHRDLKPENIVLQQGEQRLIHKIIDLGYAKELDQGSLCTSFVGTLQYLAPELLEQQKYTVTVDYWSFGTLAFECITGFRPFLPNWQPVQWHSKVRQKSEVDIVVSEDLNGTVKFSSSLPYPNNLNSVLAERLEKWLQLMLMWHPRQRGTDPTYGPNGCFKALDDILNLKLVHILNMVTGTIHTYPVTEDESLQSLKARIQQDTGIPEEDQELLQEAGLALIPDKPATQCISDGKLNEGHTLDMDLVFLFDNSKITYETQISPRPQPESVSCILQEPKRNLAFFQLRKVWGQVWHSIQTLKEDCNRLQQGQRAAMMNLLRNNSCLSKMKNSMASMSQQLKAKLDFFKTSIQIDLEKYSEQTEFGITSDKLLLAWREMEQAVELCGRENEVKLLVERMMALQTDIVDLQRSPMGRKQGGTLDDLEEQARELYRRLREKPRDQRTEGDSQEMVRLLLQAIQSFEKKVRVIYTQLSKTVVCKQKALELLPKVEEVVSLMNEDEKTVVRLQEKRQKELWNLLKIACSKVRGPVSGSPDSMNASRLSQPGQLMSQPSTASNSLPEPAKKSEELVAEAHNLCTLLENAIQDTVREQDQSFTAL
experimentDescription: IKK2 assay (TR-FRET)
Format: biochemical
conditionsUsed: ATP 1 μM final, read-out: pIC50 against IKK2 (converted)
Structures can show the parent of a compound that is named as a salt.
quantity: IC50

As a guide, the following entries are already answered.
| compound | quantity | testResult |
| --- | --- | --- |
| CCS(=O)(=O)N1CCC(c2c[nH]c3c(C(N)=O)cc(-c4cccc(CNCc5cccs5)c4)cc23)CC1 [Example 304, trifluoroacetate] | IC50 | ≤ 10 µM |
| CCS(=O)(=O)N1CCC(c2c[nH]c3c(C(N)=O)cc(-c4csc(CN(C)CC5CCOCC5)c4)cc23)CC1 [Example 83, trifluoroacetate] | IC50 | ≤ 10 µM |

Now take the following compound into account.
CCS(=O)(=O)N1CCC(c2c[nH]c3c(C(N)=O)cc(-c4cc(CNC)cc(CNC)c4)cc23)CC1 [Example 270, trifluoroacetate] has a reported IC50 of ≤ 10 µM

Numbers sourced from patent US8063071B2.
